# Measurement notes: chemical genetic growth profiling, strain panel (AID 1159580);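 note: tested at 20 µM; growth read once vehicle control cultures reached saturation at 30 °C; lower values mean less growth of the strain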
# Run parameters: S. cerevisiae deletion strains, growth OD, locus YER111C, strain swi4
Hit rate of the full screen: of about 5,500 compounds, about 2,000 (36%) were called active. About 18% were inconclusive and are not listed. Cut-off read from the data, not from the text of the source: active = normalized growth mostly below about 0.91 (no sharp cut-off); inconclusive = no clear call, values can overlap the other calls; inactive = mostly above about 0.92. Some of the results follow.
Just give me one of these, please: active, inactive

Task item: I would be grateful if you could indicate the recorded call for CC(C)(C)NC[C@@H](O)COc1nsnc1N1CCOCC1 .
Reply: inactive

Task item: Returns: the outcome recorded for O=[N+]([O-])c1cc([As](=O)(O)O)ccc1O in this assay.
Reply: inactive

Task item: What did this assay record as the result for O=C1CCCC2C3CC(CN12)[C@@H]1CCCCN1C3 (some centres undefined) ?
Reply: inactive

Task item: I'd appreciate the recorded outcome for CCCC(C)C1(CC)C(=O)N=C(S)NC1=O (centres undefined) from this test.
Reply: inactive

Task item: What outcome does the record of this test show for Nc1ccc([As](=O)(O)O)cc1 ?
Reply: inactive

Task item: Can you look up the reported call for CC(C)(C)NCC(O)c1ccccc1Cl (centres undefined) for me?
Reply: inactive

Task item: Dear all, I need the recorded test outcome for C[C@H](N)[C@H](O)c1ccc(O)c(O)c1 , thank you.
Reply: inactive

Task item: Call for entry CO[C@H]1/C=C/O[C@@]2(C)Oc3c(C)c(O)c4c(O)c(c5c(nc6cc(C)ccn65)c4c3C2=O)NC(=O)/C(C)=C\C=C\[C@H](C)[C@H](O)[C@@H](C)C(O)[C@@H](C)[C@H](OC(C)=O)[C@@H]1C (some centres undefined) :
Reply: inactive

Task item: Outcome? O=[N+]([O-])c1ccc(O)c([N+](=O)[O-])c1
Reply: active

meta.source: PubChem BioAssay AID1159580
